Molecular target: Carbonic anhydrase 1 (Homo sapiens, UniProt P00915)
Sequence (P00915 whole entry): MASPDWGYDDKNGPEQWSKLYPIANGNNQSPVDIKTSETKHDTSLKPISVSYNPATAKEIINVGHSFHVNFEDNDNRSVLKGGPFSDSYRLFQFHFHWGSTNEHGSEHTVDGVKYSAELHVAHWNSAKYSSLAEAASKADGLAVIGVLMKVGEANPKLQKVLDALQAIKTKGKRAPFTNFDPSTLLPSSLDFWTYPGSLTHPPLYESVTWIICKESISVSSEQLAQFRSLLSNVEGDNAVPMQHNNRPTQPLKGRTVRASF
Lab note: anything with Ki below 100 µM is marked Satisfied; values at 100 µM or higher are marked Not satisfied.

{"compound": "Oc1ccc(O)cc1 [HYDROQUINONE]", "label": "Satisfied"}
{"compound": "Oc1cccc(O)c1", "label": "Not satisfied"}
{"compound": "CC(=O)Nc1ccc(O)cc1", "label": "Satisfied"}
{"compound": "Oc1ccccc1O", "label": "Not satisfied"}
{"compound": "N#Cc1ccc(O)cc1", "label": "Not satisfied"}
{"compound": "Oc1cc(F)ccc1F", "label": "Not satisfied"}

====

Target: Carbonic anhydrase 15 (Mus musculus, UniProt Q99N23)
Sequence (Q99N23 whole entry): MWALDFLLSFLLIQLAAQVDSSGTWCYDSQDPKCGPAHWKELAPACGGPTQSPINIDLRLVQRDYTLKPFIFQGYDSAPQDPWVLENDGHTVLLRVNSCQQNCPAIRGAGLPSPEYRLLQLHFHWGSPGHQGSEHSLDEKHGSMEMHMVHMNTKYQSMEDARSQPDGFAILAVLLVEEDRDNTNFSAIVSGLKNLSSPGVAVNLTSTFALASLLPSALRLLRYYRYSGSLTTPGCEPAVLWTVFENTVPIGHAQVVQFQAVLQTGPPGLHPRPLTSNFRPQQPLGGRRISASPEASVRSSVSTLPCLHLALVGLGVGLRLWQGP
Ki: recorded values
measurementKind: Ki

{"compound": "N#Cc1ccc(O)cc1", "reportedValue": "434 µM"}
{"compound": "CC(=O)Nc1ccc(O)cc1", "reportedValue": "9.23 µM"}
{"compound": "Oc1ccc(O)cc1 [HYDROQUINONE]", "reportedValue": "10.6 µM"}
{"compound": "Nc1ccc(O)cc1", "reportedValue": "335 µM"}
{"compound": "Oc1cccc(O)c1", "reportedValue": "385 µM"}
{"compound": "O=C(O)c1ccc(O)cc1", "reportedValue": "9.32 µM"}
{"compound": "Oc1ccccc1O", "reportedValue": "10.2 µM"}
{"compound": "Oc1ccccc1", "reportedValue": "10.5 µM"}

====

Target: UniProt:P00918
pKi: −log10 of the molar value.
List of pKi values.

{"querySmiles": "Oc1cc(F)ccc1F", "pKi": 3.06}
{"querySmiles": "Oc1ccccc1O", "pKi": 5.00}
{"querySmiles": "CC(=O)Nc1ccc(O)cc1", "pKi": 5.21}
